# pIC50 per entry
target: Programmed cell death 1 ligand/protein 1 (Homo sapiens, UniProt Q9NZQ7+Q15116); assay: Activity of Compounds to Inhibit PD-1/PD-L1 Interaction
Sequence (Q9NZQ7 whole entry): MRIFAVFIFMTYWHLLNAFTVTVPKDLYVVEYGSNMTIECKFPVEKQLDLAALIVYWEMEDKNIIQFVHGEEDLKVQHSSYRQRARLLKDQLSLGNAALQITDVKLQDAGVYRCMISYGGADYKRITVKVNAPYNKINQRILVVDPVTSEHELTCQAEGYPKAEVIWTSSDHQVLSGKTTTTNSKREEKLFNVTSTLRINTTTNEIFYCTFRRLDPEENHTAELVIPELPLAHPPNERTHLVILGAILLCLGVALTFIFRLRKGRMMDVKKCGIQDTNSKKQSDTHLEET
Sequence (Q15116 whole entry): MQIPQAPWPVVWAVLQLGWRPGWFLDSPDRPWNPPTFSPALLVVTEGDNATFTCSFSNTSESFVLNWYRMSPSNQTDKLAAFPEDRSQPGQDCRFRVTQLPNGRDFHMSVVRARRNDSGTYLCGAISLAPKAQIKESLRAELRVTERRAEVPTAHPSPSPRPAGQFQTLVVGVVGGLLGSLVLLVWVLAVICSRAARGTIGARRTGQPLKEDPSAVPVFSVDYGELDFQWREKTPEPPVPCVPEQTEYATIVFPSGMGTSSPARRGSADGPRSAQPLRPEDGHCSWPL
pIC50 (log units): -log10 of the concentration in mol/L.

- Compound: "Cc1c(CNc2cc(OCc3cncc(C#N)c3)c(CNC(CO)C(=O)O)cc2Cl)cccc1-c1ccc2c(c1)OCCO2 (stereo unspecified)"
  pIC50: 6.88
- Compound: "Cc1cc(CNC(CO)C(=O)O)c(OCc2cncc(C#N)c2)cc1NCc1cccc(-c2ccc3c(c2)OCCO3)c1C (stereo unspecified)"
  pIC50: 7.36
- Compound: "Cc1c(CNc2cc(OCc3cncc(C#N)c3)c(CNC(CO)C(=O)O)cc2Cl)cccc1-c1ccccc1 (stereo unspecified)"
  pIC50: 7.59

Memo: COc1cc(NCc2cccc(-c3ccccc3)c2C)c(C)cc1CNC(CO)C(=O)O (stereo unspecified) , reported pIC50: 6.60

Memo: N#Cc1cncc(COc2cc(NCc3cccc(-c4ccccc4)c3Br)ccc2CNC(CO)C(=O)O)c1 (stereo unspecified) , reported pIC50: 6.69

Memo: Cc1cc(CNC(CO)C(=O)O)c(OCc2cncc(C#N)c2)cc1NCc1cccc(-c2ccccc2)c1Br (stereo unspecified) , reported pIC50: 7.51
